The measurements presented in this section are drawn from patent US9624208B2.

# assay_system: human Nav1.7 (Homo sapiens, UniProt Q15858)
# Construct: expressed in transfected cells
# Sequence (Q15858 whole entry): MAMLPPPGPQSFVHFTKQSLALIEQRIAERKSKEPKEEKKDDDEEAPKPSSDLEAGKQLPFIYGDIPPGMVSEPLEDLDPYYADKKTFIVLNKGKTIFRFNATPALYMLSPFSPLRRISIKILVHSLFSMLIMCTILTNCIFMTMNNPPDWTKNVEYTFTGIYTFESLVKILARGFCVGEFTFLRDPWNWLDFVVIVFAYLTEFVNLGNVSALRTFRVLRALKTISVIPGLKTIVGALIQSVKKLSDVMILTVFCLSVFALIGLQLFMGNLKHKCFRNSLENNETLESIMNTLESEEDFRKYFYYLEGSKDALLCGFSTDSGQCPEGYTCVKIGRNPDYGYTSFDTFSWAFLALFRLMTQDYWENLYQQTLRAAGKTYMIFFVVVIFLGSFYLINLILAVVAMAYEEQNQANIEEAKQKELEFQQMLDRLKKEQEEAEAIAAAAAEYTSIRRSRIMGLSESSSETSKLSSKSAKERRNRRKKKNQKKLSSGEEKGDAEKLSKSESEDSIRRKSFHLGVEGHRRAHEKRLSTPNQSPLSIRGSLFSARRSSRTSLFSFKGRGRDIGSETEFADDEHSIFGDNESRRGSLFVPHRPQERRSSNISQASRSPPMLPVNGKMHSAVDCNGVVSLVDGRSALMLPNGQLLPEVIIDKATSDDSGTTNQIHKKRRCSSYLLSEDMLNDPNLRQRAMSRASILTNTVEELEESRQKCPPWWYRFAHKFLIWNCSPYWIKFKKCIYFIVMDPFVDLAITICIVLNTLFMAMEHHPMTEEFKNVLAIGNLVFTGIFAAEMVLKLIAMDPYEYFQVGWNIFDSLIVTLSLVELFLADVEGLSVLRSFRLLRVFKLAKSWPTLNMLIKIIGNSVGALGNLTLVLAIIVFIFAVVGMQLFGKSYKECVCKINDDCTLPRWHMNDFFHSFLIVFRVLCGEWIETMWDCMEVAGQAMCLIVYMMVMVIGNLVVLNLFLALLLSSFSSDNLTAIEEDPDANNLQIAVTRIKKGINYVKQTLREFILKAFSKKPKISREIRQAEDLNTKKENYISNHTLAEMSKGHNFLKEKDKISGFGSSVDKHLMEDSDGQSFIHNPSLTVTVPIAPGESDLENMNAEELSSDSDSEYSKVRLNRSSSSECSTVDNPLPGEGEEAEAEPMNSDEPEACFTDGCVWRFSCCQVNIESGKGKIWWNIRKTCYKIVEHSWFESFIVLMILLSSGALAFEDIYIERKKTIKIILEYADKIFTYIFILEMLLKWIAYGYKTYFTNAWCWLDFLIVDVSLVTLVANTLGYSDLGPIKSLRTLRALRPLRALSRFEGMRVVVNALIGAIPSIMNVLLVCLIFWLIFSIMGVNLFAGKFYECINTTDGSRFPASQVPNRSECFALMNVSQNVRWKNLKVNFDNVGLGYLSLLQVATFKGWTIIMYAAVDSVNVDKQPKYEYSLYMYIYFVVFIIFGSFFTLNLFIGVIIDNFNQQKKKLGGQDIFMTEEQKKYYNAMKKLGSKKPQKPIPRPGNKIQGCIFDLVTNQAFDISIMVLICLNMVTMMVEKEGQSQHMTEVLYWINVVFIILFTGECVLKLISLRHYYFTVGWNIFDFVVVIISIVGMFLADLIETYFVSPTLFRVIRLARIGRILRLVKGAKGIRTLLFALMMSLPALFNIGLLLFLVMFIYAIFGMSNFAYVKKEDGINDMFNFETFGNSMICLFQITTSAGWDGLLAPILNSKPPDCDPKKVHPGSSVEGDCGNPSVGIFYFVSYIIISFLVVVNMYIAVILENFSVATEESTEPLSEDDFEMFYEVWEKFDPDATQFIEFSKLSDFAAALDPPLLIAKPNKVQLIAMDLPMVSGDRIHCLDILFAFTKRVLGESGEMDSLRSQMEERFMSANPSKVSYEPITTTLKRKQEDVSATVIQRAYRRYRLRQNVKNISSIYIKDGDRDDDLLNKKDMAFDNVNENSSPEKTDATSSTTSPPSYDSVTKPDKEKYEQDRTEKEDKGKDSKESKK
# test: PatchXpress sodium current measurement, inactivated state block, Nav1.7
# Assay type: cell-based
# measurement_parameters: channels stably expressed in HEK 293 cells, double-pulse protocol, 22° C., read-out: potency for the Nav 1.7 sodium ion channel (1.7=)
pIC50: −log10 of the molar value.
observed_property: pIC50

Worked set:
{"molecule": "C[C@H](c1cccc(CN)c1)n1c(=O)oc2cc(S(=O)(=O)Nc3cccc(F)n3)c(F)cc21", "pIC50": 6.32}
{"molecule": "Cc1cc2c(cc1S(=O)(=O)Nc1cccc(F)n1)oc(=O)n2[C@H](C)c1cccc(CCCN)c1", "pIC50": 7.15}

a = C[C@H](c1ccccc1C#C[C@H]1CCCC[C@@H]1N)n1c(=O)oc2cc(S(=O)(=O)Nc3cccc(F)n3)c(F)cc21 (mixture of isomers)
b = Cc1cc2c(cc1S(=O)(=O)Nc1cccc(F)n1)oc(=O)n2[C@H](C)c1cccc(Br)c1C
Task: Task for the reader: decide whether a or b has the larger pIC50. Selection: enter the item's label.
Output: a

----------
# assay_system: human Nav1.5 (Homo sapiens, UniProt Q14524)
# Construct: expressed in transfected cells
# Sequence (Q14524 whole entry): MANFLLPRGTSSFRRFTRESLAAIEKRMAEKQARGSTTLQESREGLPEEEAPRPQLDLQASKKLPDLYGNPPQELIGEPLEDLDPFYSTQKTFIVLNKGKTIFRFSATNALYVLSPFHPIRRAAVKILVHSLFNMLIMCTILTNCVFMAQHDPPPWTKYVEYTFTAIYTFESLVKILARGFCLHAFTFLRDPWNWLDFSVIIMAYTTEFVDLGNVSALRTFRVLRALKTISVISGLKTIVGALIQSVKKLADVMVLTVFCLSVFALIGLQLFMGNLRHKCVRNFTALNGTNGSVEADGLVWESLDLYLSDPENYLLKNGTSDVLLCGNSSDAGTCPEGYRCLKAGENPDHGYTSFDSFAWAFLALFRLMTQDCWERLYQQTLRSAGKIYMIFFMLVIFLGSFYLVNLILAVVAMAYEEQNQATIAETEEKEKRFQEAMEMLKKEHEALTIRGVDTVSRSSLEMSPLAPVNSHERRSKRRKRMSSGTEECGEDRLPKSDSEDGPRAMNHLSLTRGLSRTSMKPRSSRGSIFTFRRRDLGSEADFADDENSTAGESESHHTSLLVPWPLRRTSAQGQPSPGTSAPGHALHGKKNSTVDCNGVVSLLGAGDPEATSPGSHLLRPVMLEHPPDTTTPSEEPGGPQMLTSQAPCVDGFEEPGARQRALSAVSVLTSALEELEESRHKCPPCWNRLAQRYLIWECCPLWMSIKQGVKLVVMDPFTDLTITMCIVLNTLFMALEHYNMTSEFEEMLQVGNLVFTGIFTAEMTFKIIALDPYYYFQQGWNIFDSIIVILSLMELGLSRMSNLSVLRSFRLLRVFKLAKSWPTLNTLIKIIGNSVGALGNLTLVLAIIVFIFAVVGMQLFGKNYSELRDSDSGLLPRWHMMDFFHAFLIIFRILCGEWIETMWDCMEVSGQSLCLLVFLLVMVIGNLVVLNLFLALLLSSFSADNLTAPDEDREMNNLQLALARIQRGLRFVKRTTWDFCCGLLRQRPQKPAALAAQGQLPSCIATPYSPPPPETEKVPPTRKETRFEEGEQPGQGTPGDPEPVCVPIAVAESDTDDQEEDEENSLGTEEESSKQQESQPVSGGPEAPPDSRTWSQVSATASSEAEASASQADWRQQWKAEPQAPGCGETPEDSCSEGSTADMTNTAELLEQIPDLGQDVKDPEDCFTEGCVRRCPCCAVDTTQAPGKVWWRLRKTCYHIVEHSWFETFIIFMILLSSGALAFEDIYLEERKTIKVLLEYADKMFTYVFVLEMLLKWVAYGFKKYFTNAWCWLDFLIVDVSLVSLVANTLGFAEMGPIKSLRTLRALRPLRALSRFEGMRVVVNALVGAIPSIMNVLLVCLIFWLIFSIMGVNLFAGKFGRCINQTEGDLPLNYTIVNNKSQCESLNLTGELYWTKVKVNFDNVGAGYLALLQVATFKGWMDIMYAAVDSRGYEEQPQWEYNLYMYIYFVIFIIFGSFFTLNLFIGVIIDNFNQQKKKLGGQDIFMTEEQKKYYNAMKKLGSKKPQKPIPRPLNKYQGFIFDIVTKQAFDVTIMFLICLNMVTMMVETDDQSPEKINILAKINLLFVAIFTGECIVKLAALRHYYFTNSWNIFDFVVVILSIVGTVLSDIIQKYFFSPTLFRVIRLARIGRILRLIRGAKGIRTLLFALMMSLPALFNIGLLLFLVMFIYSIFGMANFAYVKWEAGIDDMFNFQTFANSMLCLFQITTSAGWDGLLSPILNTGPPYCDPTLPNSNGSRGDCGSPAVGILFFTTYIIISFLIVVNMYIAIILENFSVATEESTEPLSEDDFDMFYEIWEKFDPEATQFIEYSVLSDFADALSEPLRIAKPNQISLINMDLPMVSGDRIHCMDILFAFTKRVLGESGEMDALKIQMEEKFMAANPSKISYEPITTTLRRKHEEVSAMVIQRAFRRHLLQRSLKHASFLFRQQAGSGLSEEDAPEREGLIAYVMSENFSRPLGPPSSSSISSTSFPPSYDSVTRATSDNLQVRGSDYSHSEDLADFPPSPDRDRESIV
# test: PatchXpress sodium current measurement, inactivated state block, Nav1.5
# Assay type: cell-based
# measurement_parameters: determined by PatchXpress measurement, HEK 293 cells
observed_property: ratio of Nav 1.5:Nav 1.7 potency
Please respond with just the number, no unit label.

Worked set:
{"molecule": "C[C@H](c1cccc(C#CC2CCCCN2)c1)n1c(=O)oc2cc(S(=O)(=O)Nc3cccc(F)n3)c(F)cc21 (some centres unmarked)", "observed_property": "ratio of Nav 1.5:Nav 1.7 potency", "experimental_value": 74}
{"molecule": "C[C@H](c1ccccc1CN(C)C)n1c(=O)oc2cc(S(=O)(=O)Nc3cccc(F)n3)c(F)cc21", "observed_property": "ratio of Nav 1.5:Nav 1.7 potency", "experimental_value": 84}
{"molecule": "Cc1cc2c(cc1S(=O)(=O)Nc1cccc(F)n1)oc(=O)n2[C@H](C)c1ccccc1C1CCNCC1", "observed_property": "ratio of Nav 1.5:Nav 1.7 potency", "experimental_value": 233}

We next turn to a different molecule, shown below.
Task: GET ratio of Nav 1.5:Nav 1.7 potency where system = human Nav1.5 (Homo sapiens, UniProt Q14524) and item = "C[C@H](c1cccc(C#CCN(C)C)c1)n1c(=O)oc2cc(S(=O)(=O)Nc3cccc(F)n3)c(F)cc21"
Output: 37

----------
# assay_system: human Nav1.7 (Homo sapiens, UniProt Q15858)
# Construct: expressed in transfected cells
# test: PatchXpress sodium current measurement, inactivated state block, Nav1.7
# Format: cell-based
# measurement_parameters: channels stably expressed in HEK 293 cells, double-pulse protocol, 22° C., read-out: potency for the Nav 1.7 sodium ion channel (1.7=)
observed_property: IC50 (µM)

{"compound": "Cc1cc2c(cc1S(=O)(=O)Nc1cccc(F)n1)oc(=O)n2[C@H](C)c1cccc(C)c1CN", "observed_property": "IC50", "experimental_value": 0.014}
{"compound": "C[C@H](c1ccccc1C1=CCNCCC1)n1c(=O)oc2cc(S(=O)(=O)Nc3cccc(F)n3)c(F)cc21", "observed_property": "IC50", "experimental_value": 0.041}
{"compound": "Cc1cc2c(cc1S(=O)(=O)Nc1cccc(F)n1)oc(=O)n2[C@H](C)c1ccccc1N1CCNCC1", "observed_property": "IC50", "experimental_value": 0.074}
{"compound": "C[C@H](c1cccc(C#CCN2CCCC2)c1)n1c(=O)oc2cc(S(=O)(=O)Nc3cccc(F)n3)c(F)cc21", "observed_property": "IC50", "experimental_value": 0.337}
{"compound": "C[C@H](c1ccccc1C#CCN1CCC(O)C1)n1c(=O)oc2cc(S(=O)(=O)Nc3cccc(F)n3)c(F)cc21 (some centres unmarked)", "observed_property": "IC50", "experimental_value": 0.299}
{"compound": "C[C@H](c1cccc(C#CC2CCCCN2)c1)n1c(=O)oc2cc(S(=O)(=O)Nc3cccc(F)n3)c(F)cc21 (some centres unmarked)", "observed_property": "IC50", "experimental_value": 0.407}
{"compound": "C[C@H](c1ccccc1C1CCCN1)n1c(=O)oc2cc(S(=O)(=O)Nc3cccc(F)n3)c(F)cc21 (some centres unmarked)", "observed_property": "IC50", "experimental_value": 0.098}
{"compound": "C[C@H](c1ccccc1C#C[C@H]1CCCC[C@H]1N)n1c(=O)oc2cc(S(=O)(=O)Nc3cccc(F)n3)c(F)cc21", "observed_property": "IC50", "experimental_value": 0.014}

1 = C[C@H](c1cccc2c1CNCC2)n1c(=O)oc2cc(S(=O)(=O)Nc3cc(Cl)ccn3)c(F)cc21
2 = C[C@H](c1cccc(C#CCNC2CCCCC2)c1)n1c(=O)oc2cc(S(=O)(=O)Nc3cccc(F)n3)c(F)cc21
3 = Cc1cc2c(cc1S(=O)(=O)Nc1cccc(F)n1)oc(=O)n2[C@H](C)c1ccccc1CN
4 = Cc1cccc([C@@H](C)n2c(=O)oc3cc(S(=O)(=O)Nc4cccc(F)n4)c(F)cc32)c1CN
5 = O=c1oc2cc(S(=O)(=O)Nc3cccc(F)n3)c(F)cc2n1Cc1cccc2c1CNCC2F (single isomer, unassigned; enantiomer 2) [Ex5-11]
Task: Hey, can you sort those compounds up there by IC50, smallest first? Write out the labels following the order that was asked for.
Output: 4, 3, 1, 2, 5

a = C[C@H](c1cccc(C#CCN2CCC2)c1)n1c(=O)oc2cc(S(=O)(=O)Nc3cccc(F)n3)c(F)cc21
b = Nc1ccc2c(c1)C(n1c(=O)oc3cc(S(=O)(=O)Nc4cccc(F)n4)c(F)cc31)CCC2 (centres unmarked)
c = C[C@H](c1cccc(C2=CCCNC2)c1)n1c(=O)oc2cc(S(=O)(=O)Nc3cccc(F)n3)c(F)cc21
d = C[C@H](c1cccc(C#CCN2CCN(C)CC2)c1)n1c(=O)oc2cc(S(=O)(=O)Nc3cccc(F)n3)c(F)cc21
Task: Could you please sort these 4 entries by IC50 from high to low? Write out the labels following the order that was asked for.
Output: b, d, a, c

1 = Cc1c(C#CCN)cccc1[C@@H](C)n1c(=O)oc2cc(S(=O)(=O)Nc3cccc(F)n3)c(F)cc21
2 = C[C@H](c1ccccc1C#CCN)n1c(=O)oc2cc(S(=O)(=O)Nc3cccc(F)n3)c(F)cc21
Task: Task for the reader: decide whether 1 or 2 has the larger IC50. Selection: enter the item's label.
Output: 1
(1: 0.136 µM, 2: 0.05 µM)

----------
ratio of Nav 1.5:Nav 1.7 potency values, listed per item
# assay_system: human Nav1.5 (Homo sapiens)
# Construct: expressed in transfected cells
# test: PatchXpress sodium current measurement, inactivated state block, Nav1.5
# Format: cell-based
# measurement_parameters: determined by PatchXpress measurement, HEK 293 cells
Please respond with just the number, no unit label.

Worked set:
{"compound": "C[C@H](c1cccc(C#CCN2CCN(C)CC2)c1)n1c(=O)oc2cc(S(=O)(=O)Nc3cccc(F)n3)c(F)cc21 [Ex21-14]", "experimental_value": 134}
{"compound": "Cc1cccc([C@@H](C)n2c(=O)oc3cc(S(=O)(=O)Nc4cccc(F)n4)c(F)cc32)c1Br [Ex14-4]", "experimental_value": 27}
{"compound": "C[C@H](c1ccccc1C#C[C@H]1CCCC[C@H]1N)n1c(=O)oc2cc(S(=O)(=O)Nc3cccc(F)n3)c(F)cc21 [Ex8-3]", "experimental_value": 2000}
{"compound": "C[C@H](c1ccccc1C1=CCNCC1)n1c(=O)oc2cc(S(=O)(=O)Nc3cccc(F)n3)c(F)cc21 [Ex7-5]", "experimental_value": 1398}
{"compound": "C[C@H](c1cccc(C2=CCCNC2)c1)n1c(=O)oc2cc(S(=O)(=O)Nc3cccc(F)n3)c(F)cc21 [Ex7-11]", "experimental_value": 461}

Task: For the compound Cc1cc2c(cc1S(=O)(=O)Nc1cccc(F)n1)oc(=O)n2Cc1cccc2c1CC(N)CC2 (single isomer, unassigned) [Ex17-6] , give its reported ratio of Nav 1.5:Nav 1.7 potency.
Output: 178

Task: For the compound C[C@H](c1ccccc1C#CCN(C)C)n1c(=O)oc2cc(S(=O)(=O)Nc3cccc(F)n3)c(F)cc21 [Ex8-9] , give its reported ratio of Nav 1.5:Nav 1.7 potency.
Output: 99

Task: For the compound Cc1cccc([C@@H](C)n2c(=O)oc3cc(S(=O)(=O)Nc4cccc(F)n4)c(F)cc32)c1C#C[C@@H]1CCCC[C@@H]1N [Ex21-27] , give its reported ratio of Nav 1.5:Nav 1.7 potency.
Output: 476

Task: For the compound C[C@H](c1cccc(C#C[C@@H]2CCCC[C@@H]2N)c1)n1c(=O)oc2cc(S(=O)(=O)Nc3cccc(F)n3)c(F)cc21 [Ex21-17] , give its reported ratio of Nav 1.5:Nav 1.7 potency.
Output: 41
